B1: SPACA3 (parent)
chain: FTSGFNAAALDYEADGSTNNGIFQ

Variants of: B1
Experiment: protein stability index of a GFP-peptide fusion (GPS, HEK-293T) (PSI 1-6); higher = more stable;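 also: lentivirally expressed fusions sorted by FACS into six bins by GFP to DsRed ratio, PSI derived from sequencing read proportions per bin multiplied by bin number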
Conditions: c terminus: a fixed tail appended
attributeMeasured: protein stability index
Give your answer as a number; write no unit.

sequencechange=G21V attributemeasured="protein stability index" endpointresult=1.98
sequencechange=N20F attributemeasured="protein stability index" endpointresult=2.03
sequencechange=A9Y attributemeasured="protein stability index" endpointresult=2.03
sequencechange=D11M attributemeasured="protein stability index" endpointresult=1.98
sequencechange=T18Y attributemeasured="protein stability index" endpointresult=2.02

Please supply the value of reported protein stability index for the item `L10I`
1.98

Please report protein stability index for the following variant: `S17P`
2.05
